# system_under_test: POLRMT (Homo sapiens (Human), UniProt O00411)
# Sequence (O00411 42-1230): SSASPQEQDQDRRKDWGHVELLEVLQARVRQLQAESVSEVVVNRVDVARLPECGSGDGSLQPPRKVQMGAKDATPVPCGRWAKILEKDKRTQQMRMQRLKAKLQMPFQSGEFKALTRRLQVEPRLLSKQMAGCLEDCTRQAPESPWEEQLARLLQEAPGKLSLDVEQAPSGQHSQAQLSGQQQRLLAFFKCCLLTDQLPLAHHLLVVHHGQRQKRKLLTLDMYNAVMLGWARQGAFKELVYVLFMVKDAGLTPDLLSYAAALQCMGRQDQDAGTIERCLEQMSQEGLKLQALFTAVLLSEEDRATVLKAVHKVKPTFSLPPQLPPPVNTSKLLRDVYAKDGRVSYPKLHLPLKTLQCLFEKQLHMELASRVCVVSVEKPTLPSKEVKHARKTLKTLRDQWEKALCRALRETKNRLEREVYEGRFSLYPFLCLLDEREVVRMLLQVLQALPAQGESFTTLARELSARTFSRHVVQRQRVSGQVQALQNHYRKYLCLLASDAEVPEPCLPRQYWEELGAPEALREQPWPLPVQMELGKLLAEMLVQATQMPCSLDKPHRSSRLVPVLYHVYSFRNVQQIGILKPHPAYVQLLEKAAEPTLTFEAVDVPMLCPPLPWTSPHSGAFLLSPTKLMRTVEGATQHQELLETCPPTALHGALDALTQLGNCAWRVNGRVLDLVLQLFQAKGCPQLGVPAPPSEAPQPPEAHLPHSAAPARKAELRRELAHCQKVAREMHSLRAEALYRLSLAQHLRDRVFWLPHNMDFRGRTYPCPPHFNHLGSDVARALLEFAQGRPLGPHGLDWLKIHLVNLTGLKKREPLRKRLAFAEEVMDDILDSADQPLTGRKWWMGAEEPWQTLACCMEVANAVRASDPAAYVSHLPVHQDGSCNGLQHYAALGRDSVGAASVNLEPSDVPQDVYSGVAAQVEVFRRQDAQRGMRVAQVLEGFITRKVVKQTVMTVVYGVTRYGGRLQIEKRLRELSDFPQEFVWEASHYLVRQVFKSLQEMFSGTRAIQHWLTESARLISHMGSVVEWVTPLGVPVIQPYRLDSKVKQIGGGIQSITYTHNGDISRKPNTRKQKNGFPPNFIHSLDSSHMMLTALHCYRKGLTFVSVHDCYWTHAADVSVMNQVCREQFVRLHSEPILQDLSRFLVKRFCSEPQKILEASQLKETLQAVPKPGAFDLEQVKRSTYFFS
recorded_metric: pIC50
# log scale: pIC50 equals minus log10 of the concentration in mol/L

In the examples that follow, each entry is paired with its recorded pIC50.
compound | recorded_metric | val
Cc1ccccc1-c1cc(=O)oc2cc(N(C)Cc3nnn[nH]3)ccc12 [Example 179] | pIC50 | 7.00
CCOC(=O)/C=C/c1ccc2c(-c3ccccc3C)cc(=O)oc2c1 [Example 53] | pIC50 | 5.70
Cc1ccccc1-c1cc(=O)oc2cc(C(C)CC(=O)N3CCCCC3)ccc12 (stereo not drawn) [Example 59] | pIC50 | 5.70
O=C(OCc1ccc2c(-c3ccc(F)cc3Cl)cc(=O)oc2c1)N1CCCCC1 [Example 38] | pIC50 | 6.22

Prompt line: Return reported pIC50 for target or system POLRMT (Homo sapiens (Human), UniProt O00411), item Cc1ccccc1-c1cc(=O)oc2cc(C(=O)N3CC(CO)C3)ccc12 [Example 118] .
Response line: 4.82

Prompt line: Return reported pIC50 for target or system POLRMT (Homo sapiens (Human), UniProt O00411), item Cc1ccccc1-c1cc(=O)oc2cc(CC(C)C(=O)N3CCC[C@H](S(N)(=O)=O)C3)ccc12 (single isomer, unassigned) [Example 98] .
Response line: 4.85

Prompt line: Return reported pIC50 for target or system POLRMT (Homo sapiens (Human), UniProt O00411), item COC(=O)C1CN(C(=O)c2ccc3c(-c4ccccc4C)cc(=O)oc3c2)C1 [Example 182] .
Response line: 4.92

Prompt line: Return reported pIC50 for target or system POLRMT (Homo sapiens (Human), UniProt O00411), item CN(CC(=O)O)c1ccc2c(-c3ccccc3)cc(=O)oc2c1 [Example 101] .
Response line: 5.00

Prompt line: Return reported pIC50 for target or system POLRMT (Homo sapiens (Human), UniProt O00411), item Cc1ccc2c(-c3ccc(F)cc3Cl)cc(=O)oc2c1 [Example 03] .
Response line: 4.72

Prompt line: Return reported pIC50 for target or system POLRMT (Homo sapiens (Human), UniProt O00411), item Cc1ccccc1-c1cc(=O)oc2cc(NCc3ccnn3C)ccc12 [Example 192] .
Response line: 5.70

Prompt line: Return reported pIC50 for target or system POLRMT (Homo sapiens (Human), UniProt O00411), item CNC(=O)CN(C)c1ccc2c(-c3ccccc3C)cc(=O)oc2c1 [Example 177] .
Response line: 7.30

---

Observed pIC50 for POLRMT (Homo sapiens (Human)), reported per entry below.
# log scale: pIC50 equals minus log10 of the concentration in mol/L

compound | system_under_test | pIC50
Cc1ccccc1-c1cc(=O)oc2cc(CC(C)C(=O)N3CCC[C@H](C(N)=O)C3)ccc12 (single isomer, unassigned) | POLRMT (Homo sapiens (Human)) | 5.10

Prompt line: Return reported pIC50 for target or system POLRMT (Homo sapiens (Human)), item `Cc1ccccc1-c1cc(=O)oc2cc(N[C@H](C)CC(=O)O)ccc12` .
Response line: 5.70

Prompt line: Return reported pIC50 for target or system POLRMT (Homo sapiens (Human)), item CCOC(C)c1ccc2c(-c3ccc(F)cc3Cl)cc(=O)oc2c1 (single isomer, unassigned) .
Response line: 6.00

Prompt line: Return reported pIC50 for target or system POLRMT (Homo sapiens (Human)), item `CCOC(=O)/C(C)=C/c1ccc2c(-c3ccccc3C)cc(=O)oc2c1` .
Response line: 5.70

---

Observed IC50 for POLRMT (Homo sapiens (Human), UniProt O00411), reported per entry below.
Number only, in nM; omit the unit.

In the examples that follow, each entry is paired with its recorded IC50.
compound | units_symbol | IC50
C[C@@H](Nc1ccc2c(-c3ccc(F)cc3Cl)cc(=O)oc2c1)C(=O)N(C)C [Example 28] | nM | 800
O=C(O)CCNc1ccc2c(-c3ccc(F)cc3Cl)cc(=O)oc2c1 [Example 129] | nM | 7000
Cc1ccccc1-c1cc(=O)oc2cc(NC(C)C(N)=O)ccc12 (single isomer, unassigned) [Example 189] | nM | 900
COC[C@@H](C(=O)N1CCC[C@H](C(=O)O)C1)N(C)c1ccc2c(-c3ccccc3C)cc(=O)oc2c1 (single isomer, unassigned) [Example 120] | nM | 21000
Cc1ccccc1-c1cc(=O)oc2cc(N(C)Cc3ccccn3)ccc12 [Example 168] | nM | 90
Cc1ccccc1-c1cc(=O)oc2cc(N(C)[C@H](C)CC(=O)O)ccc12 [Example 230] | nM | 200
COC(C)c1ccc2c(-c3ccccc3C)cc(=O)oc2c1 (stereo not shown) [Example 74] | nM | 700
COC(=O)/C=C(\C)c1ccc2c(-c3ccccc3C)cc(=O)oc2c1 [Example 57] | nM | 300

Prompt line: Output measured IC50 for this item: Cc1ccccc1-c1cc(=O)oc2cc(N(C)CC(C)C(=O)O)ccc12 (single isomer, unassigned) [Example 154-2]
Response line: 500

Prompt line: Output measured IC50 for this item: Cc1ccccc1-c1cc(=O)oc2cc(N[C@@H](CC(C)C)C(=O)OC(C)(C)C)ccc12 [Example 60]
Response line: 8000

---

Observed log10 of IC50 for POLRMT (Homo sapiens (Human), UniProt O00411), reported per entry below.
Recall that a logarithmic scale is used here: each number is log10 of IC50 in µM.

In the examples that follow, each entry is paired with its recorded log10 of IC50.
compound | log10 of IC50
Cc1ccccc1-c1cc(=O)oc2cc(C(=O)N(C)C3CCOCC3)ccc12 | 1.81
Cc1ccccc1-c1cc(=O)oc2cc(C(=O)NCC(N)=O)ccc12 | 1.08
Cc1ccccc1-c1cc(=O)oc2cc(CC(C)C(N)=O)ccc12 (single isomer, unassigned) [Example 68] | -0.22
CC(=O)N(C)C1CCN(C(=O)c2ccc3c(-c4ccccc4C)cc(=O)oc3c2)CC1 | 0.90
Cc1ccccc1-c1cc(=O)oc2cc(CC(C)C(=O)N3CCC[C@H](C#N)C3)ccc12 (single isomer, unassigned) [Example 83] | -1.22
Cc1ccccc1-c1cc(=O)oc2cc(CC(C)C(=O)N3CC[C@H](C(=O)O)C3)ccc12 (single isomer, unassigned) | 1.32

Kindly consider the entry below.
Prompt line: Return reported log10 of IC50 for target or system POLRMT (Homo sapiens (Human), UniProt O00411), item `Cc1ccccc1-c1cc(=O)oc2cc(N(C)Cc3ccnn3C)ccc12` .
Response line: -1.00

---

# system_under_test: POLRMT (Homo sapiens (Human), UniProt O00411)
IC50 vs 2 µM: less than gives true (1); not less than gives false (0).

Example cases with answers are listed next.
compound | system_under_test | answer_label
Cc1ccccc1-c1cc(=O)oc2cc(N(C)[C@H](C)C(=O)O)ccc12 | POLRMT (Homo sapiens (Human), UniProt O00411) | true (1)
CN(Cc1ccc2c(-c3ccc(F)cc3Cl)cc(=O)oc2c1)C(=O)N1CCCCC1 | POLRMT (Homo sapiens (Human), UniProt O00411) | false (0)
COCc1ccc2c(-c3ccccc3C)cc(=O)oc2c1 | POLRMT (Homo sapiens (Human), UniProt O00411) | true (1)
COCC(Cc1ccc2c(-c3ccccc3C)cc(=O)oc2c1)C(N)=O (single isomer, unassigned) [Example 207] | POLRMT (Homo sapiens (Human), UniProt O00411) | false (0)
Cc1ccccc1-c1cc(=O)oc2cc(NC(C)(C)C(N)=O)ccc12 | POLRMT (Homo sapiens (Human), UniProt O00411) | false (0)

Prompt line: Hi there! Is IC50 for `Cc1ccccc1-c1cc(=O)oc2cc(NCC3(C(=O)O)CC3)ccc12` below 2 µM, do you know?
Response line: true (1)

Prompt line: Hi there! Is IC50 for `Cc1ccccc1-c1cc(=O)oc2cc(C(=O)N3CCCCC3)ccc12` below 2 µM, do you know?
Response line: true (1)

Prompt line: Hi there! Is IC50 for `CCOC(=O)/C(C)=C/c1ccc2c(-c3ccc(F)cc3Cl)cc(=O)oc2c1` below 2 µM, do you know?
Response line: false (0)

Prompt line: Hi there! Is IC50 for Cc1ccccc1-c1cc(=O)oc2cc(C(C)CC(=O)N3CCC[C@H](C(=O)O)C3)ccc12 (single isomer, unassigned) below 2 µM, do you know?
Response line: true (1)

Prompt line: Hi there! Is IC50 for `CCOC(=O)[C@H]1C[C@@H]1c1ccc2c(-c3ccccc3C)cc(=O)oc2c1` below 2 µM, do you know?
Response line: true (1)

Prompt line: Hi there! Is IC50 for `Cc1cc(O[C@H](C)C(=O)N2CCC[C@H](C(=O)O)C2)c2c(-c3ccc(F)cc3)cc(=O)oc2c1` below 2 µM, do you know?
Response line: false (0)

---

Overview of reported IC50 across a group of compounds:
# system_under_test: POLRMT (Homo sapiens (Human), UniProt O00411)
# assay_text: homogeneous TR-FRET assay of mitochondrial transcription (inhibition of POLRMT)
# Assay type: biochemical
# condition_parameters: 7.5 nM POLRMT, 15 nM TFB2M, 30 nM TFAM, 0.5 nM DNA template, 500 μM NTPs, 37° C. for 60 minutes
Number only, in µM; omit the unit.

compound | IC50 (µM)
Cc1ccc2c(-c3ccccc3C)cc(=O)oc2c1 | 0.7

Prompt line: Output measured IC50 for this item: `Cc1ccccc1-c1cc(=O)oc2cc(NCC(C)(C)C(=O)O)ccc12`
Response line: 0.2

Prompt line: Output measured IC50 for this item: `CC(=O)NC[C@H]1CCN(C(=O)c2ccc3c(-c4ccccc4C)cc(=O)oc3c2)C1`
Response line: 47

# credit: patent US20250326732A1
